target: HLA-A*2902 (human); assay: competition, purified HLA; conditions: remark: other sources report otherwise
property label: IC50 (µM)
Give just the numeric value; µM need not be written.

{"binder": "WFHISCLTF (modifications not checked)", "property label": "IC50", "uom": "µM", "test value": 0.095}

Consider now this further binder.
Form field: reported IC50 of TLEKLTNTGLY (modifications not checked)
0.991
